# Tested on: Escherichia coli TOP10
# procedure-text: shrunken log2 fold change of peptide-encoding DNA abundance (4.5 h post-induction vs induction); higher = less antimicrobial activity (less host growth inhibition)
# setup-conditions: time post-induction: 4.5 h; library: site-saturation at positions 5, 18, 19, 20
The entries below are paired with their reported shrunken log2 fold change.
// response body must contain only the number

# input Fill in: shrunken log2 fold change of RRIRNRPPRLPRPRPRPFTLPRP is ___
# output -0.884

###

# Tested on: Escherichia coli TOP10
# procedure-text: shrunken log2 fold change of peptide-encoding DNA abundance (4.5 h post-induction vs induction); higher = less antimicrobial activity (less host growth inhibition)
# setup-conditions: time post-induction: 4.5 h; library: site-saturation at positions 5, 18, 19, 20
Label scheme for shrunken log2 fold change: lower than -0.04 is 0.0, -0.04 and above is 1.0.

| sequence | category |
| --- | --- |
| RRIRPRPPRLPRPRPRPSNHPRP | 0.0 |

# input Does the reported shrunken log2 fold change for RRIRWRPPRLPRPRPRPNIPPRP fall at or above the -0.04 mark?
# output 0.0

# input Please answer likewise for RRIRMRPPRLPRPRPRPDRWPRP
# output 1.0

# input Subsequent entry: RRIRDRPPRLPRPRPRPCPRPRP
# output 0.0

# input Continue with RRIRFRPPRLPRPRPRPMQWPRP
# output 0.0

# input Request: RRIRGRPPRLPRPRPRPAHLPRP
# output 1.0

# input Lookup RRIRHRPPRLPRPRPRPGHCPRP
# output 0.0

# input What do you have for RRIRTRPPRLPRPRPRPIPGPRP ?
# output 0.0

###

# Test system: Escherichia coli TOP10
# procedure-text: shrunken log2 fold change of peptide-encoding DNA abundance (4.5 h post-induction vs induction); higher = less antimicrobial activity (less host growth inhibition)
# setup-conditions: time post-induction: 4.5 h; library: site-saturation at positions 5, 18, 19, 20
Measured shrunken log2 fold change, listed per entry.
Write the number on its own, no unit after it.

// solved cases for shrunken log2 fold change follow
| sequence | result-value |
| --- | --- |
| RRIRGRPPRLPRPRPRPHAEPRP | 2.68 |
| RRIRQRPPRLPRPRPRPKADPRP | 0.143 |
| RRIRCRPPRLPRPRPRPNCFPRP | -0.0988 |

# input What value of measured shrunken log2 fold change is listed for RRIRCRPPRLPRPRPRPMIEPRP ?
# output -0.117

# input Repeat for the following sequence: RRIRARPPRLPRPRPRPMMGPRP
# output 0.082

# input Repeat for the following sequence: RRIRFRPPRLPRPRPRPCIGPRP
# output -0.1

# input Also need RRIRIRPPRLPRPRPRPNGLPRP , thanks.
# output 0.0383

# input Next sequence: RRIRNRPPRLPRPRPRPPRVPRP
# output 0.379

###

# Tested on: Escherichia coli TOP10
# procedure-text: shrunken log2 fold change of peptide-encoding DNA abundance (4.5 h post-induction vs induction); higher = less antimicrobial activity (less host growth inhibition)
# setup-conditions: time post-induction: 4.5 h; library: site-saturation at positions 5, 18, 19, 20
measurement-name: shrunken log2 fold change

Here is how some sequences turned out for shrunken log2 fold change.
| sequence | shrunken log2 fold change |
| --- | --- |
| RRIRNRPPRLPRPRPRPRPNPRP | 0.135 |
| RRIRYRPPRLPRPRPRPQMLPRP | -0.846 |
| RRIRVRPPRLPRPRPRPQCNPRP | -0.449 |

Now, please, on to the next sequence.
# input For the record RRIRPRPPRLPRPRPRPFHDPRP , what value of shrunken log2 fold change is listed for Escherichia coli TOP10?
# output 0.000303

###

# Test system: Escherichia coli TOP10
# procedure-text: shrunken log2 fold change of peptide-encoding DNA abundance (4.5 h post-induction vs induction); higher = less antimicrobial activity (less host growth inhibition)
# setup-conditions: time post-induction: 4.5 h; library: site-saturation at positions 5, 18, 19, 20
Assign class by shrunken log2 fold change: not lower than -0.04 means YES; lower than -0.04 means NO.

Use the examples below as a reference point.
| sequence | category |
| --- | --- |
| RRIRDRPPRLPRPRPRPRCEPRP | YES |
| RRIRMRPPRLPRPRPRPSPMPRP | YES |
| RRIRGRPPRLPRPRPRPLFLPRP | YES |
| RRIRLRPPRLPRPRPRPRAVPRP | YES |
| RRIRDRPPRLPRPRPRPEQRPRP | YES |
| RRIRQRPPRLPRPRPRPGIYPRP | YES |

# input Hi, just wondering whether RRIRQRPPRLPRPRPRPTVLPRP shows shrunken log2 fold change of -0.04 or higher.
# output YES

# input Try this sequence next: RRIRGRPPRLPRPRPRPIEGPRP
# output YES

# input Could you do the same for RRIRMRPPRLPRPRPRPDCQPRP , please?
# output YES

# input RRIRARPPRLPRPRPRPWTGPRP ?
# output YES

# input Then this sequence: RRIRLRPPRLPRPRPRPFVGPRP
# output YES

###

# Test system: Escherichia coli TOP10
# procedure-text: shrunken log2 fold change of peptide-encoding DNA abundance (4.5 h post-induction vs induction); higher = less antimicrobial activity (less host growth inhibition)
# setup-conditions: time post-induction: 4.5 h; library: site-saturation at positions 5, 18, 19, 20
measurement-name: shrunken log2 fold change
Lab note: jot down the number only; don't add units.

These recorded examples may help you get a feel for the data.
| sequence | test-system | result-value |
| --- | --- | --- |
| RRIRFRPPRLPRPRPRPSQWPRP | Escherichia coli TOP10 | -0.171 |
| RRIRWRPPRLPRPRPRPWRQPRP | Escherichia coli TOP10 | 0.25 |
| RRIRVRPPRLPRPRPRPIFHPRP | Escherichia coli TOP10 | -0.0258 |
| RRIRYRPPRLPRPRPRPYRTPRP | Escherichia coli TOP10 | -0.588 |

# input # lookup: shrunken log2 fold change of RRIRWRPPRLPRPRPRPGLPPRP
# output 0.288

# input Field entry: RRIRSRPPRLPRPRPRPRMSPRP
# output 0.0167

# input Here is the next sequence: RRIRRRPPRLPRPRPRPYDQPRP
# output -0.0875

# input Also, RRIRQRPPRLPRPRPRPAEMPRP please.
# output -0.0227

# input Record: RRIRTRPPRLPRPRPRPGVGPRP
# output 0.546

###

Listing: shrunken log2 fold change of selected sequences
# Tested on: Escherichia coli TOP10
# procedure-text: shrunken log2 fold change of peptide-encoding DNA abundance (4.5 h post-induction vs induction); higher = less antimicrobial activity (less host growth inhibition)
# setup-conditions: time post-induction: 4.5 h; library: site-saturation at positions 5, 18, 19, 20
Number, no unit, nothing else.

# input GET /values?readout=shrunken log2 fold change&item= RRIRHRPPRLPRPRPRPDHDPRP
# output 0.0111

# input How about this sequence: RRIRHRPPRLPRPRPRPFHPPRP
# output -0.274

# input Request: RRIRMRPPRLPRPRPRPMKEPRP
# output -0.0707

###

# System: Escherichia coli TOP10
# procedure-text: shrunken log2 fold change of peptide-encoding DNA abundance (4.5 h post-induction vs induction); higher = less antimicrobial activity (less host growth inhibition)
# setup-conditions: time post-induction: 4.5 h; library: site-saturation at positions 5, 18, 19, 20
measurement-name: shrunken log2 fold change
No unit in the answer, only the number.

| sequence | measurement-name | result-value |
| --- | --- | --- |
| RRIRWRPPRLPRPRPRPRNKPRP | shrunken log2 fold change | 0.0794 |
| RRIRDRPPRLPRPRPRPWTQPRP | shrunken log2 fold change | -0.124 |
| RRIRCRPPRLPRPRPRPHDYPRP | shrunken log2 fold change | -0.482 |
| RRIRVRPPRLPRPRPRPGDKPRP | shrunken log2 fold change | 0.00318 |

# input // lookup shrunken log2 fold change | system=Escherichia coli TOP10 | key= RRIRWRPPRLPRPRPRPSAVPRP
# output 0.6

# input Can you check RRIRQRPPRLPRPRPRPVHIPRP next?
# output -0.1

# input Please give the result for RRIRMRPPRLPRPRPRPFHNPRP too.
# output -0.00804

###

# Test system: Escherichia coli TOP10;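 further: peptides expressed intracellularly from a pBAD plasmid library in pooled LB shake-flask culture, induced with 0.3% L-arabinose, DNA abundance read by NGS, three biological replicates, DESeq2 with apeglm shrinkage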
# procedure-text: shrunken log2 fold change of peptide-encoding DNA abundance (4.5 h post-induction vs induction); higher = less antimicrobial activity (less host growth inhibition)
# setup-conditions: time post-induction: 4.5 h; library: site-saturation at positions 5, 18, 19, 20
Measured shrunken log2 fold change determines class: Low (below -0.05), Medium (-0.05 to below 0.1), High (0.1 or more)

| sequence | category |
| --- | --- |
| RRIRWRPPRLPRPRPRPDYWPRP | High |

# input Input RRIRVRPPRLPRPRPRPASYPRP ; output its category
# output Medium

# input One more sequence: RRIRKRPPRLPRPRPRPKMGPRP
# output Medium

# input For RRIRQRPPRLPRPRPRPKRHPRP then?
# output Low

# input Try the sequence RRIRQRPPRLPRPRPRPRGIPRP
# output Low

# input // same read-out, input: RRIRNRPPRLPRPRPRPRRQPRP
# output High
